- System name: Glucose-dependent insulinotropic receptor (Rattus norvegicus)
- Sequence (Q7TQN8 whole entry): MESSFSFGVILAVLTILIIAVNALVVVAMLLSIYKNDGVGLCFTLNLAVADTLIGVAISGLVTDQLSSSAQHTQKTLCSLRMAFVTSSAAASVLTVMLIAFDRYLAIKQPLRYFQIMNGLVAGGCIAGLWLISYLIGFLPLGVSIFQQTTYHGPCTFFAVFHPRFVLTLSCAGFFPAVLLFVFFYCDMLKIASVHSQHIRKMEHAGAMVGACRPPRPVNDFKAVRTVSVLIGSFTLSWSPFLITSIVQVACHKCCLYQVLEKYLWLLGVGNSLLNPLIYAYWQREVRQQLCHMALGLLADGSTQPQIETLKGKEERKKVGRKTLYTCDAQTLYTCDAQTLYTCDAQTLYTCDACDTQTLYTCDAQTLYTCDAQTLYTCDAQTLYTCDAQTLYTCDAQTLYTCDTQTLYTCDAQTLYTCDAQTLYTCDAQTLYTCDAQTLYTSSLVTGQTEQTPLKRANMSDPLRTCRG
- Assay remarks: Agonist activity at rat GPR119 by HTRF cAMP assay
pEC50: −log10 of the molar value.
Measured endpoint: pEC50

CS(=O)(=O)c1cnc(O[C@H]2CC[C@H](OC3CCN(CC4(C(F)(F)F)CCCC4)CC3)CC2)cn1: 7.00

A = CCC(F)(F)C(=O)N1CCC(O[C@H]2CC[C@H](Oc3cnc(S(C)(=O)=O)cn3)CC2)CC1
B = CC(C)(C)OC(=O)N1CCC(O[C@H]2CC[C@H](Oc3ccc(S(C)(=O)=O)cn3)CC2)CC1
query: Hello, I am sorting some records. Could you say if A or B has the smaller pEC50 value? Select an item and report its label.
result: B
(B: 6.96, A: 7.17)
